Kindly supply the reported IC50 values for the records listed here.
- Tested on: Huh7 cells expressing a subgenomic RNA replicon of Con1 (genotype 1b) sequence origin
- assay.summary: microbe, parasite or virus in culture
- stated.conditions: Hepatitis C virus, Huh-7
Counter-ions that a name gives are not always drawn.

Entry CN1[C@@H]2CC[C@H]1C[C@@H](OC1c3ccccc3CCc3ccccc31)C2 [Deptropine (e.g., citrate), deptropine, reference compound] has what IC50?
11.1 µM

Ok, now C[C@]12CCC(=O)C=C1CC[C@@H]1[C@@H]2CC[C@@]2(C)[C@H]1CC[C@]2(C)O [Methyltestosterone, methyltestosterone, reference compound]
19.1 µM

Next record, please: C[C@@]1(CO)[C@H](O)CC[C@@]2(C)[C@H]1CC[C@H]1C[C@@H]3C[C@@]12CC[C@]3(O)CO [Aphidicolin, aphidicolin, reference compound]
1.71 µM

Now the same for CCC(C)(C)C(=O)O[C@H]1C[C@@H](C)C=C2C=C[C@H](C)[C@H](CC[C@@H](O)C[C@@H](O)CC(=O)O)[C@H]21 [Simvastatin hydroxy acid, ammonium salt, simvastatin hydroxy acid, ammonium salt, reference compound]
13.4 µM

// repeat for CN[C@H]1CC[C@@H](c2ccc(Cl)c(Cl)c2)c2ccc(NS(=O)(=O)C3CC3)cc21 and report
5.63 µM

// next record CO[C@H]1/C=C/O[C@@]2(C)Oc3c(C)c(O)c4c(O)c(c5c(nc6cc(C)ccn65)c4c3C2=O)NC(=O)/C(C)=C\C=C\[C@H](C)[C@H](O)[C@@H](C)[C@@H](O)[C@@H](C)[C@H](OC(C)=O)[C@@H]1C [Rifaximin, reference compound]
19.4 µM

What do you have for C=C(NC(=O)C(=C)NC(=O)c1csc(C2=N[C@@H]3c4csc(n4)[C@H]4NC(=O)c5csc(n5)[C@H]([C@](C)(O)[C@@H](C)O)NC(=O)[C@H]5CSC(=N5)/C(=C/C)NC(=O)[C@H]([C@@H](C)O)NC(=O)c5csc(n5)[C@]3(CC2)NC(=O)[C@H](C)NC(=O)C(=C)NC(=O)[C@H](C)NC(=O)[C@H]([C@@H](C)CC)N[C@@H]2C=Cc3c([C@H](C)O)cc(nc3[C@H]2O)C(=O)O[C@@H]4C)n1)C(N)=O [Thiostrepton, reference compound] ?
3.84 µM

Proceed to CN(C)CCOc1ccc(/C(=C(/CCCl)c2ccccc2)c2ccccc2)cc1 [Toremifene, reference compound]
15.9 µM

Now the same for COc1ccc(O)cc1 [Mequinol, reference compound]
18.7 µM

Request: CCN(CC)C(=S)SSC(=S)N(CC)CC [Disulfiram, reference compound]
5.5 µM

Same question, COC(=O)[C@H]1[C@H]2C[C@@H]3c4[nH]c5cc(OC)ccc5c4CCN3C[C@H]2C[C@@H](OC(=O)c2cc(OC)c(OC)c(OC)c2)[C@@H]1OC [Reserpine, reference compound] this time
25.3 µM

Another: Oc1ccc(OCc2ccccc2)cc1 [Monobenzone, reference compound]
1.59 µM

Repeat with O=c1oc2cc(O)ccc2s1 [Tioxolone, reference compound]
16.2 µM

And then CCOC(=O)c1ccc(N)cc1 [Benzocaine, reference compound] , what is it?
13.9 µM

----------
Exercise: for every item that follows, state its recorded IC50.
- Tested on: Huh7 cells expressing a subgenomic RNA replicon of Con1 (genotype 1b) sequence origin
// note: answer is a bare numeric in µM

Look up IC50 for this compound: CCC(Cc1c(I)cc(I)c(O)c1I)C(=O)O (stereo not shown) [Iophenoxic acid, reference compound]
10.6

// same read-out, input: COC1CC[C@@H](c2ccc(Cl)c(Cl)c2)c2ccccc21 (stereo partly shown)
26.4

Same read-out for C/C1=C2/[N-][C@H]([C@H](CC(N)=O)[C@@]2(C)CCC(=O)NC[C@@H](C)OP(=O)([O-])O[C@H]2[C@@H](O)[C@@H](n3cnc4cc(C)c(C)cc43)O[C@@H]2CO)[C@]2(C)N=C(/C(C)=C3N=C(/C=C4N=C1[C@@H](CCC(N)=O)C\4(C)C)[C@@H](CCC(N)=O)[C@]\3(C)CC(N)=O)[C@@H](CCC(N)=O)[C@]2(C)CC(N)=O.[Co+3].[OH-] [Hydroxocobalamin, hydroxocobalamin, reference compound] ?
1.33

Entry to check: Nc1ccccc1NC(=O)CCCCCCC(=O)Nc1ccccc1 [CAY10433, reference compound]
7.88

Do the same for N#CC(C#N)=Cc1ccc(O)c(O)c1 [Tyrphostin 23, tyrphostin 23, reference compound] please
14.6

Next compound: Nc1ccc(C(=O)O)c(O)c1 [P-Aminosalicylic acid, reference compound]
13.2

Next compound up: C/C1=C2/[N-]C([C@H](CC(N)=O)[C@@]2(C)CCC(=O)NC[C@@H](C)OP(=O)([O-])O[C@H]2[C@@H](O)[C@@H](n3cnc4cc(C)c(C)cc43)O[C@@H]2CO)[C@]2(C)N=C(/C(C)=C3N=C(/C=C4N=C1[C@@H](CCC(N)=O)C\4(C)C)[C@@H](CCC(N)=O)[C@]\3(C)CC(N)=O)[C@@H](CCC(N)=O)[C@]2(C)CC(N)=O.[CH2-][C@H]1O[C@@H](n2cnc3c(N)ncnc32)[C@@H](O)[C@@H]1O.[Co+3] [Cobamamide, cobamamide, reference compound]
0.41

----------
- System: Huh7 cells expressing a subgenomic RNA replicon of Con1 (genotype 1b) sequence origin
- assay.summary: microbe, parasite or virus in culture
- stated.conditions: Hepatitis C virus, Huh-7
For each entry below, report its IC90 value.
Record the value in µM, omitting the unit from your answer.

Which IC90 is reported for this compound? CSc1ccc(Oc2ccc(S(N)(=O)=O)cc2CN(C)C[C@@H](C)O)cc1C
23.9

CSc1ccc(Oc2ccc(S(N)(=O)=O)cc2CNCCCN(C)C)cc1C , same question.
9.66

Please answer likewise for CSc1ccc(Oc2ccc(S(N)(=O)=O)cc2CN2CC[C@@H](N(C)C)C2)cc1C
10.6

Another compound to look at: CN[C@H]1CC[C@@H](c2ccc(Cl)c(Cl)c2)c2ccc(N(C)C(C)=O)cc21
10.7

----------
- assay.summary: in vitro
- stated.conditions: human, CC50 (uM) [SG]
Please respond with reported CC50 for every item in the list.

Can you look up the measured CC50 of CSc1ccc(Oc2ccc([N+](=O)[O-])cc2CN(C)C)cc1C for me?
> 50 µM

Repeat with CSc1ccc(Oc2ccc(S(N)(=O)=O)cc2CN2CC[C@@H](O)C2)cc1C
> 50 µM

Also check CSc1ccc(Oc2ccc(S(N)(=O)=O)cc2CN2CCC[C@H]2CO)cc1C
> 50 µM

And then CSc1ccc(Oc2ccc(S(N)(=O)=O)cc2CNCCO)cc1C , what is it?
> 50 µM

Please answer likewise for CN(C1CC1)[C@H]1CC[C@@H](c2ccc(Cl)c(Cl)c2)c2ccccc21
> 50 µM

Next compound up: CC(C)C1CCC(c2ccc(Cl)c(Cl)c2)c2ccccc21 (centres unmarked)
> 50 µM

Another compound to check: CC(C)C1=CC[C@@H](c2ccc(Cl)c(Cl)c2)c2ccc(C(N)=O)cc21
> 50 µM

Consider next the compound COC[C@@H]1CCCN1Cc1cc(S(N)(=O)=O)ccc1Oc1ccc(SC)c(C)c1 in the same way.
> 50 µM

Same again, this time with CC(C)C1CC[C@@H](c2ccc(Cl)c(Cl)c2)c2ccc(C(N)=O)cc21 (some centres unmarked) [Isopropyl Sertraline A-Ring Carboxamide]
> 50 µM

Next compound: CNCc1ccccc1Oc1ccc(Br)cc1
> 50 µM

Item: CSc1ccc(Oc2ccc(S(N)(=O)=O)cc2C=C(C)C)cc1C
> 50 µM
